Assay target: Thermolysin (Bacillus thermoproteolyticus)
Sequence (P00800 whole entry): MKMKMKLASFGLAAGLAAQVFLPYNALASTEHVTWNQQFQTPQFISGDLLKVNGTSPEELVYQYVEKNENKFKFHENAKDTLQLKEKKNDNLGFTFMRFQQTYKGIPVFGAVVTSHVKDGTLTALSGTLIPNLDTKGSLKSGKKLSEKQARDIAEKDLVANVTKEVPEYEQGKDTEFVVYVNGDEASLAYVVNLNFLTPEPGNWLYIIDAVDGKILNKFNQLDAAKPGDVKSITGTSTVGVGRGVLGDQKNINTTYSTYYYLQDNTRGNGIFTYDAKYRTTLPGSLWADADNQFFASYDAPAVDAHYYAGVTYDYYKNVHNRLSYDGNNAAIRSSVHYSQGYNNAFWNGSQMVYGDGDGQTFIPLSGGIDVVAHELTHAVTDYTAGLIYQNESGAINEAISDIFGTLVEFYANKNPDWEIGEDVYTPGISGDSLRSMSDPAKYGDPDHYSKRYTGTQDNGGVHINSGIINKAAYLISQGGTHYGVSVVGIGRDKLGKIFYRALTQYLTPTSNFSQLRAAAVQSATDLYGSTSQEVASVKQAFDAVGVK
Binarize Ki at 3 µM; below is Met, at or above is Not met.

Examples from the recorded data:
> print(dat)
                                   molecule                              assay.target    label
1  CC(C)C[C@H](NC(=O)CNC(=O)OCc1ccccc1)C(N)=O  Thermolysin (Bacillus thermoproteolyticus)  Not met
2  NC(=O)CNC(=O)C(Cc1ccc(O)cc1)NC(=O)OCc1ccccc1 (stereo unspecified)  Thermolysin (Bacillus thermoproteolyticus)  Not met
3  CC(C)C[C@H](NC(=O)CNC(=O)OCc1ccccc1)C(=O)NO  Thermolysin (Bacillus thermoproteolyticus)  Not met
4  CC(C)CC(NP(=O)(O)O)C(=O)NC(Cc1ccccc1)C(=O)O (stereo unspecified)  Thermolysin (Bacillus thermoproteolyticus)      Met
5  CC(C)CC(NP(=O)(O)O)C(N)=O (stereo unspecified)  Thermolysin (Bacillus thermoproteolyticus)  Not met

# input for lookup
Field: below-cutoff. Rule: recorded Ki strictly less than 3 µM. Subject: CC(C)CC(NC(CCc1cccc(CN)c1)C(=O)O)C(=O)NC(Cc1ccccc1)C(=O)O (stereo unspecified) Met

---

Measured pKi by item
Assay target: Thermolysin (Bacillus thermoproteolyticus, UniProt P00800)
Sequence (P00800 whole entry): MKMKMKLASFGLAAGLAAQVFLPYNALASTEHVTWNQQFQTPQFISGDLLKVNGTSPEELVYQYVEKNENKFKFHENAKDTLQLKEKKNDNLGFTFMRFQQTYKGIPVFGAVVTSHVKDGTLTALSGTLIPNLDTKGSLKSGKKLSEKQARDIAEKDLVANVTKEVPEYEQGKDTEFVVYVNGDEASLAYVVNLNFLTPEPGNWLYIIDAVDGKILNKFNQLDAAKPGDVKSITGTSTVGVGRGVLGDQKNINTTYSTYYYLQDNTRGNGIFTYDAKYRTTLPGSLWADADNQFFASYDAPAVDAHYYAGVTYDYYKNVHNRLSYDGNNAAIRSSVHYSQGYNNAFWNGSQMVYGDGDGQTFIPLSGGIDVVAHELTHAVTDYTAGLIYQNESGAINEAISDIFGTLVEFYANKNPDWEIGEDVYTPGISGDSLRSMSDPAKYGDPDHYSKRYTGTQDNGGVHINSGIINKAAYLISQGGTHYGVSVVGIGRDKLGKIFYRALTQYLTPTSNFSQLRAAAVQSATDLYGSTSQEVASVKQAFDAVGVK
Residues, ends and D or L forms follow the SMILES beside them. *: point of attachment. Cbz = O=C(OCc1ccccc1)*; NHOH = ON*
Please report pKi as the negative decimal logarithm of the molar concentration, giving only the number.

A selection of reference data follows.
> print(dat)
                                   compound  number
1  CC(C)CC(NP(=O)(O)CNC(=O)OCc1ccccc1)C(N)=O (stereo not given)    6.12
2  C[C@H](NC(=O)[C@H](Cc1ccccc1)C(=O)NO)C(=O)NCC(=O)O    6.18

Item under review: CC(C)CC(NC(CCNC(=O)C(C)NC(=O)OCc1ccccc1)C(=O)O)C(=O)NC(Cc1ccccc1)C(=O)O (stereo not given) . Reported pKi? 6.07

// same read-out, input: CC[C@H](C)[C@H](NP(=O)(O)O)C(=O)N[C@@H](C)C(=O)O 6.44

// same read-out, input: CC(C)CC(NP(=O)(O)[C@@H](Cc1ccccc1)NC(=O)OCc1ccccc1)C(=O)NC(C)C(=O)O (stereo not given in full) 6.32

// same read-out, input: O=C(CNC(=O)CNC(=O)OCc1ccccc1)NO (Cbz-Gly-Gly-{NHOH}) 3.03

// same read-out, input: CC(C)CC(OP(=O)(O)CNC(=O)OCc1ccccc1)C(=O)NCC(=O)O (stereo not given) 3.64
